Consider the following compounds; for each one, report its IC50.
measurementTarget: Full length human CDC7 protein co-expressed with DBF4 (Homo sapiens (Human))
Sequence (O00311 whole entry): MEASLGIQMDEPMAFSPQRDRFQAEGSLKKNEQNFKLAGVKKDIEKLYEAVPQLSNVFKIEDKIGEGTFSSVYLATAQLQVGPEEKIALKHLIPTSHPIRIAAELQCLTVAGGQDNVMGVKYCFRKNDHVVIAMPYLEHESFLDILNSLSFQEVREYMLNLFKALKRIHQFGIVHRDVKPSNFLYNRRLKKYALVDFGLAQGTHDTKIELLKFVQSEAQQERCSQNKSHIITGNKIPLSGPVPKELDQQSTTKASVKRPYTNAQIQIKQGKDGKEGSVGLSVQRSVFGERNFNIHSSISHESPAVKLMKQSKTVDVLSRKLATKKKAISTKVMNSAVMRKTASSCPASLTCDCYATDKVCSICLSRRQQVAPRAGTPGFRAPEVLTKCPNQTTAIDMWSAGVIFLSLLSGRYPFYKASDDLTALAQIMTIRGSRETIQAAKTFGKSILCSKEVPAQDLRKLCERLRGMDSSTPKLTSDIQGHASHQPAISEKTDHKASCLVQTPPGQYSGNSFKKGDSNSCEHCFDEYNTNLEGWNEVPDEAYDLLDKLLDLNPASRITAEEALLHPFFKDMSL
Sequence (Q9UBU7 whole entry partner): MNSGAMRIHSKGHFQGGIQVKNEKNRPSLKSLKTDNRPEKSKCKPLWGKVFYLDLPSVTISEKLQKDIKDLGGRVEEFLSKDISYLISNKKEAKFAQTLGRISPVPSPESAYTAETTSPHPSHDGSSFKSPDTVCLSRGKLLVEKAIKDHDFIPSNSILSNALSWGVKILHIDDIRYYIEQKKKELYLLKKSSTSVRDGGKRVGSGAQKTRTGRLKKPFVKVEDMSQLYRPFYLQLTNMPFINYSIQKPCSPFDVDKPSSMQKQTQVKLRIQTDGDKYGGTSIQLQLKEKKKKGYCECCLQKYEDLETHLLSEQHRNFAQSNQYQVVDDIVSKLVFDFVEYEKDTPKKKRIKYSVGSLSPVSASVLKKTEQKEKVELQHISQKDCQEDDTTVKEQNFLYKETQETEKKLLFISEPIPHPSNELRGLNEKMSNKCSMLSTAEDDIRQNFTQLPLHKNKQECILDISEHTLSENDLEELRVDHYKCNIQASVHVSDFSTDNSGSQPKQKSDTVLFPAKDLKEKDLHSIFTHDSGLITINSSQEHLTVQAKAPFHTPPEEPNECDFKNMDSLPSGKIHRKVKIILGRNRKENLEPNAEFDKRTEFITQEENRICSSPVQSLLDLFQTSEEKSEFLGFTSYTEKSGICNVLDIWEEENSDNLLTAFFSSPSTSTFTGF

Take a look at these entries with their results.
{"columns": ["compound", "IC50"],
 "data": [
  ["C[C@@H]1Cc2c(CN3CCC(F)(F)C3)[nH]c(=O)c3sc(-c4cn[nH]c4)c(c23)O1 (single isomer, unassigned) [Example 65]", "< 1 nM"],
  ["CC[C@](C)(O)c1[nH]c(=O)c2sc(-c3c[nH]nc3C)c3c2c1CCCO3 (single isomer, unassigned) [Example 73]", "≥ 10 nM"]
]}

q: Look up IC50: C[C@@H]1Cc2c(CN3CCC3)[nH]c(=O)c3sc(-c4cn[nH]c4)c(c23)O1 (single isomer, unassigned) [Example 64]
a: < 1 nM

Values were extracted from patent US20230365584A1.
